Test system: U-2 OS
Test: cell painting activity score (Mahalanobis distance from DMSO wells); higher = stronger morphological phenotype
Details: 5 µM; 24 h
Kindly return condition met if reported cell painting activity score is no lower than 10; return condition not met if it is lower.

Exercise: Tell me whether cell painting activity score is at least 10 here: O=C(O)C[C@@H]1C(=O)O[C@H]2[C@@H]3OC(=O)c4cc(O)c(O)c(O)c4-c4c(cc(O)c(O)c4O)C(=O)OC[C@H]2O[C@@H](OC(=O)c2cc(O)c(O)c(O)c2)[C@@H]3OC(=O)c2cc(O)c(O)c3c2[C@H]1[C@H](O)C(=O)O3
Key: condition not met

Exercise: Entry to check: CC(C)C[C@@H](C=O)NC(=O)[C@@H](CC(C)C)NC(=O)[C@H](CC(C)C)NC(=O)OCc1ccccc1
Key: condition not met

Exercise: Entry NC1CS(=O)(=O)c2ccccc21 (centres undefined) please
Key: condition not met

Exercise: Param item: O=c1c2ccccc2[se]n1-c1ccccc1
Key: condition met

Exercise: Same read-out for Cn1c(SC2=CS(=O)(=O)c3ccccc32)nnc1-c1ccc(O)cc1 ?
Key: condition met

Exercise: Next: CCCCCCCc1ccc(CCc2cccc(O)c2C(=O)O)cc1
Key: condition not met

Exercise: Try c1cc(SSc2ccns2)sn1 next.
Key: condition not met

Exercise: Next compound: Cl.Cl.O=C(O)Cn1nnc(-c2ccc(CN(CCCCOc3ccc(CN4CCCC4)cc3)CCc3ccccc3)cc2)n1
Key: condition not met

Exercise: Same question for C[C@@H]1C[C@@H]([C@H](O)CC2CC(=O)NC(=O)C2)C(=O)[C@@H](C)C1 please.
Key: condition met

Exercise: Lookup O=[N+]([O-])c1ccc(-c2nnc(SC3=CS(=O)(=O)c4ccccc43)o2)cc1
Key: condition met

Exercise: Moving on to the next compound: O=C1CC(Nc2ccccc2)C(=O)N1Cc1ccccc1 (centres undefined)
Key: condition not met

Exercise: Same again, this time with O=[N+]([O-])c1c(Cl)cc(Cl)c2nsnc12
Key: condition met

Exercise: Another compound: O=NN(CCCl)C(=O)NC1CCCCC1
Key: condition not met

Exercise: What do we get for COc1ccc(C[C@H](N)C(=O)N[C@H]2[C@@H](O)[C@H](n3cnc4c(N(C)C)ncnc43)O[C@@H]2CO)cc1 ?
Key: condition met

Exercise: Follow-up item: O=C(c1ccc(/C=C/c2n[nH]c3ccccc23)cc1)N1CCNCC1
Key: condition met

Exercise: One more compound: Nc1ccn([C@@H]2O[C@H](CO)[C@@H](O)C2(F)F)c(=O)n1
Key: condition met

Exercise: Repeat for the following compound: C=CC(=O)Nc1cc2c(Nc3ccc(F)c(Cl)c3)ncnc2cc1OCCCN1CCOCC1
Key: condition met

Exercise: Next entry: COc1c(O)c2c(=O)cc3c4c5c(cc(=O)c6c(O)c(OC)c(CC(C)O)c(c(c1CC(C)O)c24)c65)OCO3 (centres undefined)
Key: condition met

Exercise: Would you kindly repeat that for CCC(=O)N1CCN(c2ccc(-n3c(=O)ccc4cnc5ccc(-c6cnc7ccccc7c6)cc5c43)cc2C(F)(F)F)CC1 ?
Key: condition met

Exercise: Okay, and C[C@@H]1CC[C@@]2(OC1)O[C@H]1[C@@H](O)[C@H]3[C@@H]4CC[C@H]5C[C@@H](O[C@@H]6O[C@H](CO)[C@H](O[C@@H]7O[C@H](CO)[C@@H](O)[C@H](O[C@@H]8OC[C@@H](O)[C@H](O)[C@H]8O)[C@H]7O[C@@H]7O[C@H](CO)[C@H](O)[C@H](O[C@@H]8O[C@H](CO)[C@@H](O)[C@H](O)[C@H]8O)[C@H]7O)[C@H](O)[C@H]6O)[C@H](O)C[C@]5(C)[C@H]4CC[C@]3(C)[C@H]1[C@@H]2C ?
Key: condition not met

Exercise: Could you do the same for Cc1[nH]c2ccccc2c1CCNCc1ccc(/C=C/C(=O)NO)cc1 , please?
Key: condition met

Exercise: Request: CCN(CCO)CCCOc1ccc2c(Nc3cc(CC(=O)Nc4cccc(F)c4)[nH]n3)ncnc2c1
Key: condition met

Exercise: Try this compound next: C=CC(=O)N1CCN(c2ncnc3c(F)c(-c4c(O)cccc4F)c(Cl)cc23)CC1
Key: condition met

Exercise: // same read-out, input: CN(N=O)C(=O)N[C@@H]1[C@@H](O)[C@H](O)[C@@H](CO)O[C@@H]1O
Key: condition met

Exercise: Would you mind doing C[C@@H]1C[C@H]2O[C@@H]2/C=C\C=C\C(=O)Cc2c(Cl)c(O)cc(O)c2C(=O)O1 as well?
Key: condition met

Exercise: Follow-up item: C/C(=C\c1csc(C)n1)[C@@H]1C[C@@H]2O[C@]2(C)CCC[C@H](C)[C@H](O)[C@@H](C)C(=O)C(C)(C)[C@@H](O)CC(=O)O1
Key: condition met

Exercise: And then COc1cc(OC)c2ccccc2c1C=C1C(=O)NC(=S)NC1=O , what is it?
Key: condition met

Exercise: What about CC(=O)N[C@@H](CCCCNC(=O)CSCCNC(=O)CCNC(=O)[C@H](O)C(C)(C)COP(=O)(O)OP(=O)(O)OC[C@H]1O[C@@H](n2cnc3c(N)ncnc32)[C@H](O)[C@@H]1OP(=O)(O)O)C(N)=O.O=C(O)C(F)(F)F ?
Key: condition not met

Exercise: Let us now turn to CC1(C)CC[C@]2(C(=O)O[C@@H]3O[C@H](CO)[C@@H](O)[C@H](O)[C@H]3O)CC[C@]3(C)C(=CC[C@@H]4[C@@]5(C)CC[C@H](O[C@@H]6O[C@H](C(=O)O)[C@@H](O)[C@H](O)[C@H]6O[C@@H]6O[C@H](CO)[C@@H](O)[C@H](O)[C@H]6O)C(C)(C)[C@@H]5CC[C@]43C)[C@@H]2C1
Key: condition not met
